Every entry's value here was drawn from paper PMC12040169.

Experiment: in vitro
Conditions: human, hela cells, % viability
Reported viability at 28.5 h, 10 µM values for the following compounds.

[
  {
    "compound": "Cc1ccc(S(=O)(=O)c2cc3c(=O)n4ccccc4nc3n(CCN3CCOCC3)c2=N)cc1 [CBK265637]",
    "viability at 28.5 h, 10 µM": "80.3%"
  },
  {
    "compound": "OC(CN1CCC(O)(c2ccc(F)cc2)CC1)c1ccc(-c2ccccc2)cc1 (centres unmarked) [CBK286328]",
    "viability at 28.5 h, 10 µM": "90%"
  },
  {
    "compound": "O=c1cc(CN2CCC(Oc3nccnc3OCc3ccc(Cl)c(Cl)c3)CC2)[nH]c(=O)[nH]1 [CBK153784]",
    "viability at 28.5 h, 10 µM": "96.6%"
  },
  {
    "compound": "CSc1ccccc1NC(=O)Cn1c(-c2nonc2N)nc2ccccc21 [CBK266919]",
    "viability at 28.5 h, 10 µM": "90%"
  },
  {
    "compound": "C#CCNCc1ccc(O)cc1 [CBK013235C]",
    "viability at 28.5 h, 10 µM": "87.4%"
  }
]
